Values were extracted from the supplement of paper PMC4977894.

Tested on: Homo sapiens (human subject panel, olfactory perception)
procedure.details: perceived odor intensity rating (rating 0-100); higher = stronger perceived smell
condition.details: odor dilution in paraffin oil: 1/1,000
metric: perceived odor intensity rating
Number only, please.

> print(dat)
                                   compound  quantitative.result
1  C/C=C/C=C/CO [trans,trans-2,4-Hexadien-1-ol]                 45.5
2              C=CC(O)CC (stereo not given)                   53
3  C/C=C/C=C/COC(C)=O [trans,trans-2,4-Hexadienyl acetate]                   22

Ask: Request the reported perceived odor intensity rating associated with CC(C)COC(=O)c1ccccc1 [Isobutyl benzoate]
Result: 36.7

Ask: May I ask what perceived odor intensity rating has been recorded for CC(C)c1ccccc1O ?
Result: 84.3

Ask: Any idea what its perceived odor intensity rating is? The compound is C=CC(O)CCCCC (stereo not given)
Result: 66.5

---

System: Homo sapiens (human subject panel, olfactory perception)
procedure.details: perceived odor intensity rating (rating 0-100); higher = stronger perceived smell
condition.details: odor dilution in paraffin oil: 1/1,000
metric: perceived odor intensity rating
// keep it numeric: no unit symbol after the value

Ask: What value of perceived odor intensity rating has been reported for the following compound? O=C(c1ccccc1)c1ccccc1
Result: 24.9

Ask: Quick one: perceived odor intensity rating for CCCCCC(=O)OCC [ethyl hexanoate] ?
Result: 73.9

Ask: Fill in: perceived odor intensity rating of CCOC(=O)c1ccccc1 [Ethyl benzoate] is ___
Result: 66.2

Ask: Param item = CCCCCCCCCCCCCCCCCC(=O)OCC [Ethyl stearate] ; retrieve measured perceived odor intensity rating.
Result: 17

Ask: Could you tell me which perceived odor intensity rating is on file for C=C(C)C1CC=C(C)C(=O)C1 (single isomer, unassigned; (-)) [(-)-Carvone] ?
Result: 72.6

Ask: Param item = CC1CCCC(=O)C1 (stereo not drawn) ; retrieve measured perceived odor intensity rating.
Result: 71

Ask: // perceived odor intensity rating lookup, key: C=C(C)[C@@H]1CC[C@@H](C)C[C@H]1O [(-)-Isopulegol]
Result: 24.4

Ask: Would you kindly share the measured perceived odor intensity rating for C=Cc1scnc1C ?
Result: 80.5

---

Tested on: Homo sapiens (human subject panel, olfactory perception)
procedure.details: perceived odor intensity rating (rating 0-100); higher = stronger perceived smell
condition.details: odor dilution in paraffin oil: 1/1,000
Counter-ions that a name gives are not always drawn.
metric: perceived odor intensity rating
Field format: numeric only.

Worked set:
> print(dat)
                                   compound  quantitative.result
1                               CCCC(=O)CCC                 69.3
2                              O=Cc1ccccc1O                 77.9
3      CC(=O)Oc1ccc(C)cc1 [p-Tolyl acetate]                 72.6
4  C=CCOC(=O)C(CC)CC [Allyl 2-ethylbutyrate]                 68.5
5                          CC(=O)c1ccc(C)o1                 71.5

Ask: Given the compound CC(=O)OC1CC2CCC1(C)C2(C)C (centres undefined) [Bornyl acetate] , what is its reported perceived odor intensity rating?
Result: 36.1

Ask: Form field: reported perceived odor intensity rating of CC(=O)OCC1CCCO1 (centres undefined) [Tetrahydrofurfuryl acetate]
Result: 55.6

Ask: What does the record list as perceived odor intensity rating for CCCCCCOC=O [Hexyl Formate] ?
Result: 60.7

Ask: Query: perceived odor intensity rating; subject: O=C(OCCc1ccccc1)c1ccco1 [Phenethyl 2-furoate]
Result: 44.8
